Binding response values for the binders below.
- system: T1, human LAP-TGFB1 Fc fusion (human)
- T1 construct: also called human LAP-TGFβ1-Fc; human LAP-TGFβ-Fc isoform 1
- T1 sequence (chain, as listed by the source limits assumed): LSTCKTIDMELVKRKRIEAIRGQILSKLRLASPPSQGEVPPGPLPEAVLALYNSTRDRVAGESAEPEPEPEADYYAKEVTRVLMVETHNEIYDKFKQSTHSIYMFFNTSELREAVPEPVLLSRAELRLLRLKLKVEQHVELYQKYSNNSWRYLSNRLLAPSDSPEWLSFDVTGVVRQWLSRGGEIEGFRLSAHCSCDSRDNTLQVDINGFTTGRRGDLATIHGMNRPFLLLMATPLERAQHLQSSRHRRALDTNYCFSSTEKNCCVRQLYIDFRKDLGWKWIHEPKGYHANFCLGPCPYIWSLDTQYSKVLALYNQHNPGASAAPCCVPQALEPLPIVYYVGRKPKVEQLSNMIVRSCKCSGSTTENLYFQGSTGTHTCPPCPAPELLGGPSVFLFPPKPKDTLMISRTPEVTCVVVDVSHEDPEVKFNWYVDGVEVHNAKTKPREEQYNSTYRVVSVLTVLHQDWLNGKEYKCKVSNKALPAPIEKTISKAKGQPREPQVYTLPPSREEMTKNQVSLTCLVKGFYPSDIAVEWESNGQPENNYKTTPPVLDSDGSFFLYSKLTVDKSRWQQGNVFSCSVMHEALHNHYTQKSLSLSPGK
- procedure-summary: BLI off-rate screen
experimental-endpoint: Binding response (nm)

- binder: "VH G98Y (65BIT) (Fab, V domains shown) VH: EVQLVQSGAEVKKPGASVKVSCKASGYTFTSYWMHWVRQAPGQGLEWMGRIDPQSGGIKYAQKFQGRATLTVDTSTSTAYMELSRLRSDDTAVYYCARWDYYGYFDVWGQGTLVTVSS VL: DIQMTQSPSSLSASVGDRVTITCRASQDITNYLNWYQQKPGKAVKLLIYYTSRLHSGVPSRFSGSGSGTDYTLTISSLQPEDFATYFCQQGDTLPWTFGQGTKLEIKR"
  experimental-endpoint: "Binding response"
  unit-string: "nm"
  endpoint-result: 0.037
- binder: "VL R24Y (38BIT) (Fab, V domains shown) VH: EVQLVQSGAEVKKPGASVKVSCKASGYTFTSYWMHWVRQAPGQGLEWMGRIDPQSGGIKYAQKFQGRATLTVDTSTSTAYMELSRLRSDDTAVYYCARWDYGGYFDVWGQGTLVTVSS VL: DIQMTQSPSSLSASVGDRVTITCYASQDITNYLNWYQQKPGKAVKLLIYYTSRLHSGVPSRFSGSGSGTDYTLTISSLQPEDFATYFCQQGDTLPWTFGQGTKLEIKR"
  experimental-endpoint: "Binding response"
  unit-string: "nm"
  endpoint-result: 0.446
- binder: "VL S26Y (40BIT) (Fab, V domains shown) VH: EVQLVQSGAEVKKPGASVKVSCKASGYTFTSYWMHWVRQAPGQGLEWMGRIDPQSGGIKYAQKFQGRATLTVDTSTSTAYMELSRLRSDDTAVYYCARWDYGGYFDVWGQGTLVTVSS VL: DIQMTQSPSSLSASVGDRVTITCRAYQDITNYLNWYQQKPGKAVKLLIYYTSRLHSGVPSRFSGSGSGTDYTLTISSLQPEDFATYFCQQGDTLPWTFGQGTKLEIKR"
  experimental-endpoint: "Binding response"
  unit-string: "nm"
  endpoint-result: 0.371
- binder: "VH S54Y (80BIT) (Fab, V domains shown) VH: EVQLVQSGAEVKKPGASVKVSCKASGYTFTSYWMHWVRQAPGQGLEWMGRIDPQYGGIKYAQKFQGRATLTVDTSTSTAYMELSRLRSDDTAVYYCARWDYGGYFDVWGQGTLVTVSS VL: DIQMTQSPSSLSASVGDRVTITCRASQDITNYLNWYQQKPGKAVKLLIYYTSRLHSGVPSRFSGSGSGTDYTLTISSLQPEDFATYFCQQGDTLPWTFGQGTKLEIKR"
  experimental-endpoint: "Binding response"
  unit-string: "nm"
  endpoint-result: 0.588
- binder: "VL L33Y (46BIT) (Fab, V domains shown) VH: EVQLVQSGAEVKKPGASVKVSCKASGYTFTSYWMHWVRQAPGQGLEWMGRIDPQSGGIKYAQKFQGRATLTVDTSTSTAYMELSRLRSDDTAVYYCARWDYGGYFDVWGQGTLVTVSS VL: DIQMTQSPSSLSASVGDRVTITCRASQDITNYYNWYQQKPGKAVKLLIYYTSRLHSGVPSRFSGSGSGTDYTLTISSLQPEDFATYFCQQGDTLPWTFGQGTKLEIKR"
  experimental-endpoint: "Binding response"
  unit-string: "nm"
  endpoint-result: 0.095
- binder: "VH P52aY (78BIT) (Fab, V domains shown) VH: EVQLVQSGAEVKKPGASVKVSCKASGYTFTSYWMHWVRQAPGQGLEWMGRIDYQSGGIKYAQKFQGRATLTVDTSTSTAYMELSRLRSDDTAVYYCARWDYGGYFDVWGQGTLVTVSS VL: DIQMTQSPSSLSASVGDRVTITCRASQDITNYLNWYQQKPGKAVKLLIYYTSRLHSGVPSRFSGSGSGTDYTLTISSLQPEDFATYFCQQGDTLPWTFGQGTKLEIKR"
  experimental-endpoint: "Binding response"
  unit-string: "nm"
  endpoint-result: 0.566
- binder: "VH K58Y (84BIT) (Fab, V domains shown) VH: EVQLVQSGAEVKKPGASVKVSCKASGYTFTSYWMHWVRQAPGQGLEWMGRIDPQSGGIYYAQKFQGRATLTVDTSTSTAYMELSRLRSDDTAVYYCARWDYGGYFDVWGQGTLVTVSS VL: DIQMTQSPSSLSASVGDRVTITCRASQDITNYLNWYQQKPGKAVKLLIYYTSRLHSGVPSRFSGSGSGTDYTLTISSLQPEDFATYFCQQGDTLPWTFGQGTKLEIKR"
  experimental-endpoint: "Binding response"
  unit-string: "nm"
  endpoint-result: 0.339
